biological target: human ENPP1 (Homo sapiens, UniProt P22413); construct: made in house; test: ENPP1 assay with ATP substrate (Transcreener AMP2/GMP2 TR-FRET); type: biochemical; conditions: 1 hour at room temperature
Sequence (P22413 whole entry): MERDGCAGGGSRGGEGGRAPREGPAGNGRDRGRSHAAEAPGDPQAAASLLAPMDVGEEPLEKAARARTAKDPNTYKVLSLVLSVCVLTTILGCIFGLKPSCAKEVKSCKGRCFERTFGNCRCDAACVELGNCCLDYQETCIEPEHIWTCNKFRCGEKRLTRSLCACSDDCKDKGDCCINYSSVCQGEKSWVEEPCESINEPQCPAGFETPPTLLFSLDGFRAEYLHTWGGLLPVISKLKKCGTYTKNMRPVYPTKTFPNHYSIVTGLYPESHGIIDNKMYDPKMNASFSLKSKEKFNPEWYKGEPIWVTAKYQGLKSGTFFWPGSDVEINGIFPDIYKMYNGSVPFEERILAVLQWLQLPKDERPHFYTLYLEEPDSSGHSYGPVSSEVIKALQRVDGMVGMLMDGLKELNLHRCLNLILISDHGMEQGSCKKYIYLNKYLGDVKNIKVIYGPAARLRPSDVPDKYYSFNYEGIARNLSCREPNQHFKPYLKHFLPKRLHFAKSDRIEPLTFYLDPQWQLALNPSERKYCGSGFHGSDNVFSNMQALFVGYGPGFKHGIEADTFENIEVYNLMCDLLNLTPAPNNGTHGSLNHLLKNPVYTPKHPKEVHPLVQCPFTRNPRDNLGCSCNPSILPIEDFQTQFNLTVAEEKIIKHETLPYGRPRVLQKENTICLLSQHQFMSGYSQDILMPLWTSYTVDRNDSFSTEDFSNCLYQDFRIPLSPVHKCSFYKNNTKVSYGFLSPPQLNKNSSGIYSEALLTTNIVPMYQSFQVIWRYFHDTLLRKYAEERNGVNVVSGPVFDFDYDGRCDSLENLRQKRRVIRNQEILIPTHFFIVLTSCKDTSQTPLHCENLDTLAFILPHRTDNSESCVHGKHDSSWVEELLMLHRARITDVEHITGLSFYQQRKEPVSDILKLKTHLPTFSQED
Recorded measurements of IC50, one per entry

Worked examples follow.
>  <molecule>
Cn1ncc2c(NCc3ccc(S(N)(=O)=O)cc3)cnnc21 [Example 2.55]

>  <IC50>
0.1 to 1 µM

$$$$
>  <molecule>
CCNc1cc(NCc2ccc(S(N)(=O)=O)cc2)c2cnn(C)c2n1 [Example 2.75]

>  <IC50>
0.1 to 1 µM

$$$$
>  <molecule>
Cn1cnc2c(NCc3ccc(S(N)(=O)=O)cc3)ncnc21 [Example 2.8]

>  <IC50>
> 20 µM

$$$$

Could you share what IC50 was measured for Fc1ccc(CCCNC2CCN(c3ncnc4c(-c5ccccc5)csc34)CC2)cc1 [Example 3.58] , tested on human ENPP1 (Homo sapiens, UniProt P22413)?
1 to 20 µM

Could you share what IC50 was measured for Cn1ncc2c(NCc3ccc(S(N)(=O)=O)cc3)nc(NCc3ccccc3)nc21 [Example 2.48] , tested on human ENPP1 (Homo sapiens, UniProt P22413)?
0.1 to 1 µM

Could you share what IC50 was measured for c1ccc(-c2csc3nc(-c4ccccn4)nc(NCc4ccccn4)c23)cc1 [Example 1.2] , tested on human ENPP1 (Homo sapiens, UniProt P22413)?
> 20 µM

Could you share what IC50 was measured for Cn1ncc2c(NCc3ccc(S(N)(=O)=O)cc3)nc(NC3CCCCC3)nc21 [Example 2.30] , tested on human ENPP1 (Homo sapiens, UniProt P22413)?
1 to 20 µM

Could you share what IC50 was measured for NS(=O)(=O)c1ccc(CNc2nc(NCCCO)nc3scc(-c4ccccc4)c23)cc1 [Example 1.51] , tested on human ENPP1 (Homo sapiens, UniProt P22413)?
< 0.1 µM

Could you share what IC50 was measured for Cc1cc(CNc2ccnc3c2cnn3C)ccc1S(N)(=O)=O [Example 2.70] , tested on human ENPP1 (Homo sapiens, UniProt P22413)?
0.1 to 1 µM

Could you share what IC50 was measured for Cn1nc(Br)c2c(NCc3ccc(S(N)(=O)=O)cc3)nc(Cl)nc21 [Example 2.87] , tested on human ENPP1 (Homo sapiens, UniProt P22413)?
< 0.1 µM

Could you share what IC50 was measured for Cc1csc2c(N3CCC(NC(=O)CCc4ccnc(F)c4)CC3)ncnc12 [Example 3.36] , tested on human ENPP1 (Homo sapiens, UniProt P22413)?
1 to 20 µM

Could you share what IC50 was measured for Cn1ncc2c(NCc3ccc(S(N)(=O)=O)cc3)nc(N3CCOCC3)nc21 [Example 2.29] , tested on human ENPP1 (Homo sapiens, UniProt P22413)?
> 20 µM

Could you share what IC50 was measured for Cc1csc2c(N3CCC(NC(=O)Cc4ccc(F)cc4)CC3)ncnc12 [Example 3.43] , tested on human ENPP1 (Homo sapiens, UniProt P22413)?
1 to 20 µM

Could you share what IC50 was measured for Cc1csc2c(N3CCC(NC/C=C/c4ccncc4)CC3)ncnc12 [Example 3.76] , tested on human ENPP1 (Homo sapiens, UniProt P22413)?
0.1 to 1 µM

Could you share what IC50 was measured for Cc1csc2c(N3CCC(NCc4ccc(F)cc4)CC3)ncnc12 [Example 3.42] , tested on human ENPP1 (Homo sapiens, UniProt P22413)?
1 to 20 µM

Could you share what IC50 was measured for NS(=O)(=O)c1ccc(CNc2nc(-c3ccccn3)nc3scc(-c4ccccc4)c23)c(Cl)c1 [Example 1.21] , tested on human ENPP1 (Homo sapiens, UniProt P22413)?
< 0.1 µM

Could you share what IC50 was measured for CCSc1nc(NCc2ccc(S(N)(=O)=O)cc2)c2cnn(CC)c2n1 [Example 2.109] , tested on human ENPP1 (Homo sapiens, UniProt P22413)?
< 0.1 µM

Could you share what IC50 was measured for NS(=O)(=O)c1ccc(CNc2ncnc3scc(-c4ccccc4)c23)s1 [Example 1.28] , tested on human ENPP1 (Homo sapiens, UniProt P22413)?
1 to 20 µM

Could you share what IC50 was measured for Cn1ncc2c(NCc3ccc(S(N)(=O)=O)cc3Cl)ccnc21 [Example 2.61] , tested on human ENPP1 (Homo sapiens, UniProt P22413)?
0.1 to 1 µM

Could you share what IC50 was measured for Cc1csc2c(N3CCC(NCCCc4ccnc(F)c4)CC3)ncnc12 [Example 3.37] , tested on human ENPP1 (Homo sapiens, UniProt P22413)?
0.1 to 1 µM

Could you share what IC50 was measured for Cn1ncc2c(NCc3cccc(F)c3)nc(-c3ccccn3)nc21 [Example 2.12] , tested on human ENPP1 (Homo sapiens, UniProt P22413)?
> 20 µM

Could you share what IC50 was measured for Cn1ncc2c(NCc3ccc(S(N)(=O)=O)cn3)ccnc21 [Example 2.71] , tested on human ENPP1 (Homo sapiens, UniProt P22413)?
< 0.1 µM
